Origin of the recorded values: patent US10266497B2

# TARGET_OR_TEST_SYSTEM: MAGL (Mus musculus, UniProt O35678)
# Sequence (O35678 whole entry): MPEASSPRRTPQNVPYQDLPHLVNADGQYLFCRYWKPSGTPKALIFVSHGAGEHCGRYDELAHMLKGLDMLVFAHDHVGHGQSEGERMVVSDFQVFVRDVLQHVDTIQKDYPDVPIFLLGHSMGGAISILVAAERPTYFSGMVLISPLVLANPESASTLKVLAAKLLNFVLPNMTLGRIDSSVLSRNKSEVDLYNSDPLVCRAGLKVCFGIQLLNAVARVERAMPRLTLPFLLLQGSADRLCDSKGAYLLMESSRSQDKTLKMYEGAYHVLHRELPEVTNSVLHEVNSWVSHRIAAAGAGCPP
# TEST_DESCRIPTION: In vitro competitive activity-based protein profiling, MAGL, mouse
# TEST_CONDITIONS: read-out: MAGL % inh. 1 μM (mouse)
OBSERVABLE: inhibition at 1 µM

Solved entries:
CC(C)(O)C1CCN(c2cc(C(F)(F)F)ccc2CN2CCN(C(=O)n3ccc(C(=O)O)n3)CC2)CC1 [Example 109] = > 75%
O=C(O)c1ccn(C(=O)N2CCN(Cc3ccc(C(F)(F)F)c(-c4nccs4)c3)CC2)n1 [Example 8] = > 75%

Summary line: Cc1cc(-c2ccccc2)ccc1CN1CCN(C(=O)n2ccc(C(=O)O)n2)[C@H](C)C1 [Example 245] , MAGL (Mus musculus, UniProt O35678), reported inhibition at 1 µM = > 75%

Summary line: O=C(O)c1nn(C(=O)N2CCN(Cc3cccc(C(F)(F)F)c3N3CCOCC3)CC2)cc1Cl [Example 449] , MAGL (Mus musculus, UniProt O35678), reported inhibition at 1 µM = > 75%
